Ref: ChEMBL document CHEMBL1629418

- Test Target: NPC1-like intracellular cholesterol transporter 1 (Homo sapiens, UniProt Q9UHC9)
- Sequence (Q9UHC9 whole entry): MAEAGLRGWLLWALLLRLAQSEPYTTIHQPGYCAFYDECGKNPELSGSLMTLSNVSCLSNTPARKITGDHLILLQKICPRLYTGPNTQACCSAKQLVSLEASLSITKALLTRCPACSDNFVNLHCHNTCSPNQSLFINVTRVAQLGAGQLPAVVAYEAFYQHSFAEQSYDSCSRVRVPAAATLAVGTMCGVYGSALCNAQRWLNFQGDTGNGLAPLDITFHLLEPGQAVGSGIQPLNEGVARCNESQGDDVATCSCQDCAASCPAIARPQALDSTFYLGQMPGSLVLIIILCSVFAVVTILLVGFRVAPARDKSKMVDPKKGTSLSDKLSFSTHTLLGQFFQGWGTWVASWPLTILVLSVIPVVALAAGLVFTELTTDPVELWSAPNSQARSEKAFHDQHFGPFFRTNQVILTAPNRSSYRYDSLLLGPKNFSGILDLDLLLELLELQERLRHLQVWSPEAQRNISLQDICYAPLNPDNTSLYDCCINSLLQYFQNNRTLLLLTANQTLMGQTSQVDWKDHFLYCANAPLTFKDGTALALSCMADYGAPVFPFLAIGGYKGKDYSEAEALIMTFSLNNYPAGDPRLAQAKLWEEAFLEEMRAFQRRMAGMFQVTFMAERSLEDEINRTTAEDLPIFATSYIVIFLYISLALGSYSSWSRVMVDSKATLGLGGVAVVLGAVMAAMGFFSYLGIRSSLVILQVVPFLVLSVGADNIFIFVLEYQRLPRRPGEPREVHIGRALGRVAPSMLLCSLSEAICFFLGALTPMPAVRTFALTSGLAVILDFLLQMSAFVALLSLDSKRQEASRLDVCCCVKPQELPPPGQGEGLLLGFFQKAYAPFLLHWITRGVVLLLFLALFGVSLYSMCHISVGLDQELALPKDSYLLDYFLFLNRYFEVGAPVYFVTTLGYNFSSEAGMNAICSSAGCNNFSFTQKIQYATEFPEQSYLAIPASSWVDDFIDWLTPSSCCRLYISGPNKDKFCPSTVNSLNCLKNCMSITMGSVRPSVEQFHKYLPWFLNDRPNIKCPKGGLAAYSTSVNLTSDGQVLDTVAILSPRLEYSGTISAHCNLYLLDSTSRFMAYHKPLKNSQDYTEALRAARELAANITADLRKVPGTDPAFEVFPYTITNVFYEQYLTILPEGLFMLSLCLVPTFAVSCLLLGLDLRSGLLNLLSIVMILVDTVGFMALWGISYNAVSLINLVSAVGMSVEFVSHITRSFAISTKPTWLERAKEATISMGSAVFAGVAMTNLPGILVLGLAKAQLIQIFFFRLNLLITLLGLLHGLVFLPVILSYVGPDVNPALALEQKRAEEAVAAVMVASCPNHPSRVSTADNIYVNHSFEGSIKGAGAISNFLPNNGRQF
- Procedure Text: Displacement of [35S](2S,3S,4S,5R,6S)-6-(4-((2S,3R)-3-((S)-3-(4-fluorophenyl)-3-hydroxypropyl)-1-(4-(3-(methylsulfonamido)prop-1-ynyl)phenyl)-4-oxoazetidin-2-yl)phenoxy)-3,4,5-trihydroxytetrahydro-2H-pyran-2-carboxylic acid from human NCP1L1 expressed in HEK 293
Quantity Measured: pIC50
To interpret pIC50, take it as minus log10 of a concentration measured in moles per litre.

Here are 10 compounds together with their reported answers.
CC(C)(C)OC(=O)NCC1CCN(C(=O)CN2CN(c3ccccc3)C3(CCN(C(=O)c4ccc(C(C)(C)C)cc4)CC3)C2=O)CC1 | 5.38
CC(C)(C)c1ccc(C(=O)N2CCC3(CC2)C(=O)N(CC(=O)N2CCC(O)CC2)CN3c2ccccc2)cc1 | 5.33
CC(C)(C)c1ccc(C(=O)N2CCC3(CC2)C(=O)N(CC(=O)NCCCO)CN3c2ccccc2)cc1 | 4.63
CC(C)(C)c1ccc(C(=O)N2CCC3(CC2)C(=O)N(CC(=O)N2CCN(S(C)(=O)=O)CC2)CN3c2ccccc2)cc1 | 4.72
CC(C)(C)c1ccc(C(=O)N2CCC3(CC2)C(=O)N(CC(=O)NCCCN)CN3c2ccccc2)cc1 | 4.31
CC(C)(C)OC(=O)N1CCN(C(=O)CN2CN(c3ccccc3)C3(CCN(C(=O)c4ccc(C5CCCCC5)cc4)CC3)C2=O)CC1 | 5.46
O=C(CN1CN(c2ccccc2)C2(CCN(C(=O)c3ccc(C4CCCCC4)cc3)CC2)C1=O)N1CCNCC1 | 5.19
CC(C)(C)c1ccc(C(=O)N2CCC3(CC2)C(=O)N(CC(=O)N2CCCC(O)C2)CN3c2ccccc2)cc1 (stereo unspecified) | 4.91
CC(C)(C)OC(=O)NCCCCNC(=O)CN1CN(c2ccccc2)C2(CCN(C(=O)c3ccc(C4CCCCC4)cc3)CC2)C1=O | 5.26
CCOC(=O)C1CCN(C(=O)CN2CN(c3ccccc3)C3(CCN(C(=O)c4ccc(C5CCCCC5)cc4)CC3)C2=O)CC1 | 6.05

stdin: What pIC50 value was documented for this compound, `CC(C)(C)c1ccc(C(=O)N2CCC3(CC2)C(=O)N(CC(=O)NCCN)CN3c2ccccc2)cc1` ?
stdout: 4.23

stdin: Consider the compound shown here: `CC(C)(C)c1ccc(C(=O)N2CCC3(CC2)C(=O)N(CC(=O)N2CCC(CO)CC2)CN3c2ccccc2)cc1` What is its recorded pIC50?
stdout: 5.40
